Cited source for all entries: patent US20250019385A1

assay-overview: Solubility measurement (DMSO solution precipitation method)
Format: physicochemical
test-conditions: aqueous buffer, kinetic from dmso stock, McIlvaine buffer pH 4.5, 24 h, read-out: solubility pH 4.5
observable: solubility at 24 h

Recorded solubility at 24 h, per entry:
compound=C[C@H](Oc1nc(-c2onc3c2CCC[C@@]32CCCc3sc(N)c(C#N)c32)nc2c1n(C)c(=O)n2[C@H]1CCCOC1)[C@@H]1CCCN1C observable="solubility at 24 h" observed_result="> 0.149 mg/mL"
compound=C[C@H](Oc1nc(-c2noc3c2CCC[C@@]32CCCc3sc(N)c(C#N)c32)nc2c1CN(C1COC1)C[C@]21CCOC1)[C@@H]1CCCN1C observable="solubility at 24 h" observed_result="> 0.152 mg/mL"
compound=C[C@@H]1COC[C@H](n2c(=O)n(C)c3c(O[C@@H](C)[C@@H]4CCCN4C)nc(-c4onc5c4CCC[C@@]54CCCc5sc(N)c(C#N)c54)nc32)C1 observable="solubility at 24 h" observed_result="> 0.157 mg/mL"
compound=CO[C@H]1CCN(C)[C@@H]1[C@H](C)Oc1nc(-c2noc3c2CCC[C@@]32CCCc3sc(N)c(C#N)c32)nc2c1n(C)c(=O)n2[C@@H]1CCOC1 observable="solubility at 24 h" observed_result="> 0.161 mg/mL"
compound=C[C@H](Oc1nc(-c2onc3c2CCC[C@@]32CCCc3sc(N)c(C#N)c32)nc2c1[nH]c(=O)n2[C@@H]1CCOC1)[C@@H]1CCCN1C observable="solubility at 24 h" observed_result="> 0.147 mg/mL"

Form field: reported solubility at 24 h of C[C@H](Oc1nc(-c2noc3c2CCC[C@@]32CCCc3sc(N)c(C#N)c32)nc2c1CCC21CCOC1)[C@@H]1CCCN1C (stereo partly drawn)
0.089 mg/mL

One more compound: `CO[C@H]1CCN(C)[C@@H]1[C@H](C)Oc1nc(-c2onc3c2CCC[C@@]32CCCc3sc(N)c(C#N)c32)nc2c1n(C)c(=O)n2[C@@H]1CCOC1`
> 0.157 mg/mL

---

target-system: KRAS (G12D)::SOS1 protein-protein interaction (Homo sapiens (Human), UniProt P01116, G12D)
Sequence (P01116 other isoform, or with tags, fused parts or gaps G12D): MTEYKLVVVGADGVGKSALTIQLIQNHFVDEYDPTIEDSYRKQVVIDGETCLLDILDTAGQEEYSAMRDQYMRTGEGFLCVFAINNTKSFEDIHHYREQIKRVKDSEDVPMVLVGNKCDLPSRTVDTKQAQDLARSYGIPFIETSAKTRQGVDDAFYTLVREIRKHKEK
assay-overview: KRAS::SOS1 AlphaScreen binding assay (KRAS G12D)
test-conditions: GDP
pIC50: −log10 of the molar value.
observable: pIC50

Recorded pIC50, per entry:
smiles_data=C[C@H](Oc1nc(-c2onc3c2CCC[C@@]32CCCc3sc(N)c(C#N)c32)nc2c1n(C)c(=O)n2C1CCOCC1)[C@@H]1CCCN1C observed_result=8.30
smiles_data=CO[C@H]1CCN(C)[C@@H]1[C@H](C)Oc1nc(-c2onc3c2CCC[C@@]32CCCc3sc(N)c(C#N)c32)nc2c1n(C)c(=O)n2[C@@H]1CCOC1 observed_result=9.00
smiles_data=C[C@H](Oc1nc(-c2noc3c2CCC[C@@]32CCCc3sc(N)c(C#N)c32)nc2c1CNC[C@]21CCOC1)[C@@H]1CCCN1C observed_result=9.00
smiles_data=C[C@H](Oc1nc(-c2noc3c2CCC[C@@]32CCCc3sc(N)c(C#N)c32)nc2c1CC[C@]21CNCCO1)[C@@H]1C[C@@H](F)CN1C observed_result=9.00
smiles_data=C[C@H](Oc1nc(-c2noc3c2CCC[C@@]32CCCc3sc(N)c(C#N)c32)nc2c1COC[C@]21CCOC1)[C@@H]1CCCN1C observed_result=9.00

I. C[C@H](Oc1nc(-c2noc3c2CCC[C@@]32CCCc3sc(N)c(C#N)c32)nc2c1n(C)c(=O)n2[C@H]1CO[C@@H](C)C1)[C@@H]1CCCN1C
II. C[C@H](Oc1nc(-c2onc3c2CCC[C@@]32CCCc3sc(N)c(C#N)c32)nc2c1n(C)c(=O)n2[C@H]1CCOC1)[C@@H]1CCCN1C
Among I and II , whose measured pIC50 is the smaller figure? # respond with the chosen item's label
II

---

System: Ba/F3 cells KRAS G12C
assay-overview: Ba/F3 proliferation assay (KRAS G12C)
Assay type: cell-based
test-conditions: Mus musculus, BaF3, 72 h, AlamarBlue viability
observable: IC50 (nM)

Recorded IC50, per entry:
compound=COCCn1c(=O)n(C)c2c(O[C@@H](C)[C@@H]3CCCN3C)nc(-c3onc4c3CCC[C@@]43CCCc4sc(N)c(C#N)c43)nc21 observed_result=99
compound=C[C@H](Oc1nc(-c2onc3c2CCC[C@@]32CCCc3sc(N)c(C#N)c32)nc2c1n(C)c(=O)n2[C@@]12COC[C@@H]1C2)[C@@H]1CCCN1C observed_result=2
compound=CO[C@@H]1C[C@@H]([C@H](C)Oc2nc(-c3onc4c3CCC[C@@]43CCCc4sc(N)c(C#N)c43)nc3c2n(C)c(=O)n3[C@@H]2CCOC2)N(C)C1 observed_result=6
compound=CO[C@H]1CCN(C)[C@@H]1[C@H](C)Oc1nc(-c2noc3c2CCC[C@@]32CCCc3sc(N)c(C#N)c32)nc2c1CN(C1COC1)C[C@]21CCOC1 observed_result=2
compound=CCn1c(=O)n([C@@H]2CCCOC2)c2nc(-c3onc4c3CCC[C@@]43CCCc4sc(N)c(C#N)c43)nc(O[C@@H](C)C34CCCN3CCC4)c21 observed_result=31

a. C[C@H](Oc1nc(-c2onc3c2CCC[C@@]32CCCc3sc(N)c(C#N)c32)nc2c1n(C)c(=O)n2[C@@H]1CC2CCC1O2)[C@@H]1CCCN1C (stereo partly drawn)
b. C[C@H](Oc1nc(-c2onc3c2CCC[C@@]32CCCc3sc(N)c(C#N)c32)nc2c1n(C)c(=O)n2[C@H]1CO[C@@H](C)C1)[C@@H]1CCCN1C
c. CO[C@H]1C[C@H](n2c(=O)n(C)c3c(O[C@@H](C)[C@@H]4CCCN4C)nc(-c4onc5c4CCC[C@@]54CCCc5sc(N)c(C#N)c54)nc32)C1
d. C[C@H](Oc1nc(-c2onc3c2CCC[C@@]32CCCc3sc(N)c(C#N)c32)nc2c1n(C)c(=O)n2[C@@H]1CCOC1)[C@@H]1C[C@@H]2C[C@@H]2N1C
e. C[C@H](Oc1nc(-c2onc3c2CCC[C@@]32CCCc3sc(N)c(C#N)c32)nc2c1n(C)c(=O)n2C1CCOCC1)[C@@H]1CCCN1C
Hi! Can you put these in order of IC50, lowest number first? # output: labels, in the requested order
b, d, e, a, c

a. C[C@H](Oc1nc(-c2noc3c2CCC[C@@]32CCCc3sc(N)c(C#N)c32)nc2c1COC[C@@]21CCOC1)[C@@H]1CCCN1C
b. C[C@H](Oc1nc(-c2onc3c2CCC[C@@]32CCCc3sc(N)c(C#N)c32)nc2c1n(C)c(=O)n2[C@@H]1CCOC1)[C@@H]1[C@H](F)CCN1C
Thinking about recorded IC50 values, which is higher, a or b ? # respond with the chosen item's label
a
(a: 84 nM, b: 58 nM)

---

HLM QH: recorded values
assay-overview: Metabolic (microsomal) stability assay, human liver microsomes (HLM)
Assay type: in vitro ADME
test-conditions: 1 μM test compound, predicted clearance as percent of liver blood flow

Recorded HLM QH, per entry:
smiles_data=C[C@H](Oc1nc(-c2onc3c2CCC[C@@]32CCCc3sc(N)c(C#N)c32)nc2c1n(C)c(=O)n2[C@H]1CCOC1)[C@@H]1CCCN1C observable="HLM QH" observed_result=<24%
smiles_data=CO[C@H]1C[C@@H](n2c(=O)n(C)c3c(O[C@@H](C)[C@@H]4CCCN4C)nc(-c4onc5c4CCC[C@@]54CCCc5sc(N)c(C#N)c54)nc32)C1 observable="HLM QH" observed_result=<24%

Turning now to a further compound:
Form field: reported HLM QH of `C[C@H](Oc1nc(-c2onc3c2CCC[C@@]32CCCc3sc(N)c(C#N)c32)nc2c1[nH]c(=O)n2[C@@H]1CCOC1)[C@@H]1CCCN1C`
<24%

---

assay-overview: Solubility measurement (DMSO solution precipitation method)
Type: physicochemical
test-conditions: aqueous buffer, kinetic from dmso stock, McIlvaine buffer pH 6.8, 24 h, read-out: solubility pH 6.8
observable: solubility at 24 h

compound="Cc1nc2c(O[C@@H](C)[C@@H]3CCCN3C)nc(-c3onc4c3CCC[C@@]43CCCc4sc(N)c(C#N)c43)nc2n1[C@@H]1CCOC1 [I-39]" observable="solubility at 24 h" observed_result="> 137 µg/mL"

Form field: reported solubility at 24 h of COCCn1c(=O)n(C)c2c(O[C@@H](C)[C@@H]3CCCN3C)nc(-c3onc4c3CCC[C@@]43CCCc4sc(N)c(C#N)c43)nc21 [I-7]
> 147 µg/mL

One more compound: C[C@H](Oc1nc(-c2noc3c2CCC[C@@]32CCCc3sc(N)c(C#N)c32)nc2c1CNC[C@]21CCOC1)[C@@H]1CCCN1C [II-15]
> 148 µg/mL

One more compound: CO[C@H]1C[C@@H](n2c(=O)n(C)c3c(O[C@@H](C)[C@@H]4CCCN4C)nc(-c4onc5c4CCC[C@@]54CCCc5sc(N)c(C#N)c54)nc32)C1 [I-31]
> 148 µg/mL

One more compound: CCn1c(=O)n([C@@H]2CCCOC2)c2nc(-c3onc4c3CCC[C@@]43CCCc4sc(N)c(C#N)c43)nc(O[C@@H](C)[C@@H]3CCCN3C)c21 [I-30]
88 µg/mL

One more compound: C[C@H](Oc1nc(-c2onc3c2CCC[C@@]32CCCc3sc(N)c(C#N)c32)nc2c1n(C)c(=O)n2[C@@H]1CCCOC1)[C@@H]1CCCN1C [I-12]
> 142 µg/mL
